target: T1, human Sdc2 (human, UniProt P34741 19-144, limits assumed); experiment: Kd (human Sdc2), summary table of the mAbs
T1 construct: Antigen of the Octet tandem binning, loaded on biosensors at 100 nM; also called huSdc2; hSdc2
T1 sequence (P34741 19-144 limits assumed): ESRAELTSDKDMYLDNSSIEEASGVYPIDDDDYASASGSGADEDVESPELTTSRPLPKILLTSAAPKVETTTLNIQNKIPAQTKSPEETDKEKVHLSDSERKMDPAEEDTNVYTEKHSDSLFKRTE
observable: Kd (nM)
Please state the figure in nM; there is no need to write the unit.

The following binders have reported results that may help.
R3-P3-C11 (antibody, human IgG1, kappa, V domains shown, human IgG1 kappa from the phage campaign) VH: EVQLVESGGGLVQPGRSLRLACEASGFTFNNYAVHWVRQAPGKGLEWVAVISYDGTNKYYSDSMKGRFTISRDNSKNTLYLQINSLRVEDTAVYFCARGNYVRRDSFDIWGQGTMVTVSS VL: DIQMTQSPPSLSASVGDRVTITCRASQSISSYLNWYQQKPGKAPKLLIYGASSLQSGVPLRFSGSGSGADFTLTISSLQPEDFATYYCQQSYISPITFGQGTRLEIKR: 2.26
6-N03-A (antibody, mouse IgG1, kappa, V domains shown) VH: EVQLVESGGGLVKPGGSLKLSCEASGITFSNYVMSWVRQTPEKRLEWVATISDGGSYTYYPDNVKGRFTISRDNAKNNLYLQMSHLKSEDTAMYYCVRDRYDYDGRVYAMDYWGQGTSVTVSS VL: DVVMTQTPLSLPVSLGDQASISCRSSQSLVHSNGDTYLHWYLQKPGQSPKLLIYKVSNRFSGVPDRFSGSGSGTDFTLKITRVEAEDLGVYFCSQSTHVPWTFGGGTKLEIKR: 1.17

Okay, next one:
// Kd value for R4M-P1-A10 (antibody, human IgG1, kappa, V domains shown) VH: EVQLVETGGGVVQPGRSLRLSCAASGFTFSSYAMHWVRQAPGKGLEWVAVISYDGSNKYYADSVKGRFTISRDNSKNTLYLQMNSLRAEDTAVYYCARDRGWADAFDIWGQGTMVTVSS VL: QAGLTQPPSVSKGLRQTATLTCTGNSNNVGYQGAVWLLQYQGHPPKVLSNRNNDRPSGISERLSASRSGNTASLTITGLQPEDEGDYFCAAWDGSLRGWVFGGGTKLTVLR : 1.82

Just for reference, patent US20250282885A1 is where these values come from.
